- Run Description: Gravimetric vapour sorption (GVS), water vapour adsorption
- Type: physicochemical
- Experimental Parameters: 10 % RH
Reported Water Adsorption values are given for each entry in this list.
Write the answer as a number in wt %, unit excluded.

Solved cases below.
- Compound: "CCCCC1=NC2(CCCC2)C(=O)N1Cc1ccc(-c2ccccc2-c2nnn[nH]2)cc1 [Sample B, irbesartan]"
  Endpoint Result: 0.04
- Compound: "CCCCC1=NC2(CCCC2)C(=O)N1Cc1ccc(-c2ccccc2-c2nnn[nH]2)cc1 [Sample A, irbesartan]"
  Endpoint Result: 0.09
- Compound: "CCCCC1=NC2(CCCC2)C(=O)N1Cc1ccc(-c2ccccc2-c2nnn[nH]2)cc1 [Sample D, irbesartan]"
  Endpoint Result: 0.10

With those in mind, consider the next compound.
# input Look up Water Adsorption of CCCCC1=NC2(CCCC2)C(=O)N1Cc1ccc(-c2ccccc2-c2nnn[nH]2)cc1 [Sample C, irbesartan] and report it.
# output 0.07

* * *

Reported Water Adsorption values are given for each entry in this list.
- Run Description: Gravimetric vapour sorption (GVS), water vapour adsorption
- Format: physicochemical
- Experimental Parameters: 70 % RH
Write the answer as a number in wt %, unit excluded.

- Molecule: "CCCCC1=NC2(CCCC2)C(=O)N1Cc1ccc(-c2ccccc2-c2nnn[nH]2)cc1 [Sample C, irbesartan]"
  Water Adsorption, wt %: 0.23

# input Look up Water Adsorption of CCCCC1=NC2(CCCC2)C(=O)N1Cc1ccc(-c2ccccc2-c2nnn[nH]2)cc1 [Sample D, irbesartan] and report it.
# output 0.46

# input Look up Water Adsorption of CCCCC1=NC2(CCCC2)C(=O)N1Cc1ccc(-c2ccccc2-c2nnn[nH]2)cc1 [Sample B, irbesartan] and report it.
# output 0.20

# input Look up Water Adsorption of CCCCC1=NC2(CCCC2)C(=O)N1Cc1ccc(-c2ccccc2-c2nnn[nH]2)cc1 [Sample A, irbesartan] and report it.
# output 0.39

* * *

Reported Water Surface Area (WSA) values are given for each entry in this list.
- Run Description: Water surface area from GVS data, BET model
- Assay type: physicochemical
- Experimental Parameters: BET adsorption model, GVS adsorption runs
Write the answer as a number in m^2/g, unit excluded.

Solved cases below.
- Molecule: "CCCCC1=NC2(CCCC2)C(=O)N1Cc1ccc(-c2ccccc2-c2nnn[nH]2)cc1 [Sample B, irbesartan]"
  Water Surface Area (WSA) / m^2/g: 3.2
- Molecule: "CCCCC1=NC2(CCCC2)C(=O)N1Cc1ccc(-c2ccccc2-c2nnn[nH]2)cc1 [Sample C, irbesartan]"
  Water Surface Area (WSA) / m^2/g: 3.6
- Molecule: "CCCCC1=NC2(CCCC2)C(=O)N1Cc1ccc(-c2ccccc2-c2nnn[nH]2)cc1 [Sample A, irbesartan]"
  Water Surface Area (WSA) / m^2/g: 5.9

With those in mind, consider the next molecule.
# input Look up Water Surface Area (WSA) of CCCCC1=NC2(CCCC2)C(=O)N1Cc1ccc(-c2ccccc2-c2nnn[nH]2)cc1 [Sample D, irbesartan] and report it.
# output 6.5

* * *

- Run Description: Gravimetric vapour sorption (GVS), water vapour adsorption
- Type: physicochemical
- Experimental Parameters: 25 % RH
Property Label: Water Adsorption (wt %)
Write the answer as a number in wt %, unit excluded.

# input Look up Water Adsorption of CCCCC1=NC2(CCCC2)C(=O)N1Cc1ccc(-c2ccccc2-c2nnn[nH]2)cc1 [Sample A, irbesartan] and report it.
# output 0.17

# input Look up Water Adsorption of CCCCC1=NC2(CCCC2)C(=O)N1Cc1ccc(-c2ccccc2-c2nnn[nH]2)cc1 [Sample B, irbesartan] and report it.
# output 0.09

# input Look up Water Adsorption of CCCCC1=NC2(CCCC2)C(=O)N1Cc1ccc(-c2ccccc2-c2nnn[nH]2)cc1 [Sample D, irbesartan] and report it.
# output 0.19

# input Look up Water Adsorption of CCCCC1=NC2(CCCC2)C(=O)N1Cc1ccc(-c2ccccc2-c2nnn[nH]2)cc1 [Sample C, irbesartan] and report it.
# output 0.11
